Test: yeast display, Sf9 membrane polyspecificity reagent, FACS + sequencing; frameworks hold sequencing errors

[
  {
    "Sequence Entry": "QVQLVDSGGGLVQAGGSLRLSCPASGYTIVYNAMGCYRQGPGKEREFVAAITWSGTSTRYADSVKGRFTISRDKAKNTVYLQMNSLKPDDTAVYYCSARFPLVRYNYWGQGTQVTVSS",
    "polyreactivity (PSR sort gate)": "high polyreactivity"
  },
  {
    "Sequence Entry": "QVQLVESGGGLVQAGGSLRLSCAASGFIFSSYAMGWYRQAPGKERELVAAISRSGGRTYYADSVKGRFTISRDNAKNTVYLQMNSLKPEDTAVYYCAAKWLGTAGDDYWGQGTQVTVSS",
    "polyreactivity (PSR sort gate)": "high polyreactivity"
  }
]
